B1: Ribonuclease HI, P0A7Y4 (parent)
chain: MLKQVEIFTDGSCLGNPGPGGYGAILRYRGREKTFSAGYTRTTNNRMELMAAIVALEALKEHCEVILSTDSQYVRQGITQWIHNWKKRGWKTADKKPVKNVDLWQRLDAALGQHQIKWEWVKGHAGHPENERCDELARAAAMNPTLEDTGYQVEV

# Variants of: B1
# testSettings: Escherichia coli (strain K12); pH 5.5; 25 °C; GdnHCl; Fluorescence; Sodium acetate 20 mM; NaCl 0.1 M; reversible: yes; structure 2RN2; whole UniProt chain shown
Assign ddG of mutation (higher = less stable) to each entry below.
Numbers only, in kcal/mol.

Please review the entries below; each comes with its answer.
- mutantId: "H124A"
  ddG of mutation (higher = less stable) [kcal/mol]: -0.48
- mutantId: "H127A"
  ddG of mutation (higher = less stable) [kcal/mol]: 0.58
- mutantId: "H62A"
  ddG of mutation (higher = less stable) [kcal/mol]: -0.38

Here is another variant to look at.
-- ask Please give the measured ddG of mutation (higher = less stable) for this variant: H114A
-- reply 2.63
